This collection of values is drawn from patent US20250136687A1.

ASSAYED TARGET: T1, recombinant human CD3ε-ECD His protein (human, UniProt P07766 23-126)
T1 construct: extracellular domain; also called human CD3ε-His; CD3ε antigen protein; not shown: His tag
T1 sequence (P07766 23-126): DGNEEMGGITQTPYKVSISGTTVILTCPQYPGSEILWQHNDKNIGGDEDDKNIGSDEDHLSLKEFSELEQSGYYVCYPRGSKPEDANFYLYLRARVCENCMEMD
PROTOCOL: SPR (Biacore), antibody captured on Protein A chip
Recorded Kd for the following binders
// note: answer is a bare numeric in nM

Give the measured Kd of 7-35.6 human-murine chimeric antibody (antibody, human IgG1, lambda, V domains shown, Human IgG1 chimera) VH: EVQLVESGGGLVQPKGSLKLSCAASGFTFNTYAMNWVRQAPGKGLEWVGRIRSKINNYATYYGDSVKDRFTISRDDSQSMFYLQMNNLKTEDTAMYYCVIHENYGSISWFAYWGQGTLVTVSA VL: QAVVTQESTLTTSPGETVTLTCRSSTGAVTTSNYANWVQEKPDHLFTGLIGGTNNRAPGVPARFSGSLIGDKAALTITGAQTEDEAIYFCALWYSNHWVFGGGTKLTVLG .
0.959

For 5-7.13 human-murine chimeric antibody (antibody, human IgG1, kappa, V domains shown, Human IgG1 chimera) VH: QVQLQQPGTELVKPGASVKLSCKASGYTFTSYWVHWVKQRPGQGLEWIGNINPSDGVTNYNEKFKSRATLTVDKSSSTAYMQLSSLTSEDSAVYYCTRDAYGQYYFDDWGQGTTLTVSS VL: DIVMSQSPSSLVVSAGEKVTMSCKSSQSLLNSRTRKNYLAWYQQKPGQSPKLLIYWASVRDSGVPDRFTGSGSGTDFTLTISNVQAEDLAVYYCIQSYYLRTFGGGTILEIKR , what is its reported Kd?
0.345

If you can, please state the reported Kd value of 5-40.21 human-murine chimeric antibody (antibody, human IgG1, kappa, V domains shown, Human IgG1 chimera) VH: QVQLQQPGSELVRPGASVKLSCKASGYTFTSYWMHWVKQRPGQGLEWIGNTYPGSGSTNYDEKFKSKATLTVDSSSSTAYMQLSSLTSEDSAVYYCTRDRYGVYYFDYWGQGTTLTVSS VL: DIVMSQSPSSLAVSAGEKVTMSCKSSQSLLNSRTRKNYLAWYQQKPGQSPKLLIYWASTRESGVPDRFSGSGSGTDFTLTISSVQAEDLAVYYCTQSYNLRTFGGGTKLEIKR .
0.553

Value lookup for Kd; key = 40G5c-hIgG1 (antibody, V domains shown) VH: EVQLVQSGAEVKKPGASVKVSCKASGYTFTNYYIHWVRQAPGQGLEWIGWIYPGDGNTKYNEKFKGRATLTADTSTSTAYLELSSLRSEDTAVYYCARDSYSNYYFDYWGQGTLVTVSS VL: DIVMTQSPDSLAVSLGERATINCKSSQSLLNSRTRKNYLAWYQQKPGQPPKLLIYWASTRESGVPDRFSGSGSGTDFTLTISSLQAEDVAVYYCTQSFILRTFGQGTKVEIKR
0.203
